Taken from patent US20140363495A1.

target-or-test-system: T1, HLA-A2 molecules on T2A2 cells (human)
T1 construct: whole, on cells; also called class I molecules
experiment: flow cytometry, upregulation of HLA-A2 on T2A2 cells, peptide 12.5 µg/mL
endpoint: T2 Binding (MFI)

{"binder": "ALAIVYLIAL (Synthetic 10-mer, purity >90%; also called Native 432) [P1172]", "endpoint": "T2 Binding (MFI)", "assay-result": 249}
{"binder": "YLIALAVCQC (Synthetic 10-mer) [P1177]", "endpoint": "T2 Binding (MFI)", "assay-result": 211}
{"binder": "YLIALAVCQV [P1177(10V)]", "endpoint": "T2 Binding (MFI)", "assay-result": 299}
{"binder": "YLSYTNPAV [P1240(1Y)]", "endpoint": "T2 Binding (MFI)", "assay-result": 342}
{"binder": "SLSYTNPAV (Synthetic 9-mer) [P1240]", "endpoint": "T2 Binding (MFI)", "assay-result": 326}
{"binder": "YLAIVYLIAL [P1172(1Y)]", "endpoint": "T2 Binding (MFI)", "assay-result": 245}
